Target: human MT2 receptor (Homo sapiens, UniProt P49286)
Sequence (P49286 1-362): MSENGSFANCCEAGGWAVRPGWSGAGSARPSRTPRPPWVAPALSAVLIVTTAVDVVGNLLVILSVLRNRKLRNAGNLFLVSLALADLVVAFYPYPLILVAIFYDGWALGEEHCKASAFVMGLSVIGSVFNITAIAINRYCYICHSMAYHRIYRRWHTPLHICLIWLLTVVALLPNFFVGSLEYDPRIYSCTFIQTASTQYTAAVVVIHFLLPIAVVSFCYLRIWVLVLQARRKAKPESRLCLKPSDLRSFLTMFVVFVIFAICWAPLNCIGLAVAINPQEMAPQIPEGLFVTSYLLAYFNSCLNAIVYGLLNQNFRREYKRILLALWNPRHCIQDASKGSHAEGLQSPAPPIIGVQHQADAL
Assay: Activation of human MT2 receptor in receptor-expressing cells, intracellular Ca2+ by FLIPR
Settings: HEK293 cells stably expressing human MT2 and Gq/i chimeric G protein; Ca2+ FLIPR
Experimental endpoint: pEC50
pEC50 here: minus log base 10 of the concentration, concentration in moles per litre.

Q: # input molecule: CNC(=O)NCCc1c(C)[nH]c2ccc(OCCOc3cnc(OC)c(F)c3)cc12 [Example 48] ; wanted: its pEC50
Ans: 7.25

Q: # input molecule: COC(=O)NCCOc1ccc2[nH]c(C)c(CCNC(C)=O)c2c1 [Example 17] ; wanted: its pEC50
Ans: 7.48

Q: # input molecule: Cn1ccc(OCCOc2ccc3[nH]cc(CCNC(=O)C(F)F)c3c2)n1 [Example 42] ; wanted: its pEC50
Ans: 7.92

Q: # input molecule: CC(=O)NCC(C)(C)c1c[nH]c2cc(F)c(OCCOc3ccn(C)n3)cc12 [Example 35] ; wanted: its pEC50
Ans: 8.08

Q: # input molecule: CC(=O)NCCc1c[nH]c2ccc(OCCOc3cncc(Br)c3)cc12 [Example 49] ; wanted: its pEC50
Ans: 7.96

Q: # input molecule: CNC(=O)NCCc1c(C)[nH]c2ccc(OCCn3ccc(C)n3)cc12 [Example 30] ; wanted: its pEC50
Ans: 7.82

Q: # input molecule: CC(=O)NCCc1c(C)[nH]c2ccc(OCCn3ccc(C)n3)cc12 [Example 29] ; wanted: its pEC50
Ans: 7.62

Q: # input molecule: CNC(=O)NCCc1c[nH]c2ccc(OCCOc3cccc(C)n3)cc12 [Example 58] ; wanted: its pEC50
Ans: 8.47

Q: # input molecule: CC(=O)NC[C@H](C)c1c[nH]c2cc(Cl)c(OCCOc3ccn(C)n3)cc12 [Example 38] ; wanted: its pEC50
Ans: 7.89

Q: # input molecule: CC(=O)NCCc1c[nH]c2ccc(OCCOc3cccc(C)n3)cc12 [Example 11] ; wanted: its pEC50
Ans: 8.62

Q: # input molecule: CNC(=O)NCCc1c[nH]c2cc(F)c(OCCc3csc(C)n3)cc12 [Example 26] ; wanted: its pEC50
Ans: 8.01

Q: # input molecule: CC(=O)NCCc1c[nH]c2ccc(OCCOc3cnccn3)cc12 [Example 3] ; wanted: its pEC50
Ans: 7.29

Q: # input molecule: CC(=O)NCCc1c[nH]c2ccc(OCCOc3cncc(Cl)c3)cc12 [Example 55] ; wanted: its pEC50
Ans: 8.04

Q: # input molecule: CNC(=O)NCCc1c[nH]c2ccc(OCCOc3cncc(Cl)c3)cc12 [Example 56] ; wanted: its pEC50
Ans: 8.00

Q: # input molecule: CC(=O)NCCc1c[nH]c2ccc(OCCOc3ccnc(Cl)c3)cc12 [Example 51] ; wanted: its pEC50
Ans: 8.33

Q: # input molecule: CCC(=O)NCCc1c[nH]c2ccc(OCCOc3ccn(C)n3)cc12 [Example 8] ; wanted: its pEC50
Ans: 7.92

Q: # input molecule: CC(=O)NC[C@H](C)c1c[nH]c2cc(F)c(OCCn3ccc(C)n3)cc12 [Example 39] ; wanted: its pEC50
Ans: 7.29

Q: # input molecule: CCC(=O)NCCc1c(C)[nH]c2ccc(OCCn3ccc(C)n3)cc12 [Example 15] ; wanted: its pEC50
Ans: 7.92

Q: # input molecule: CNC(=O)NCCc1c[nH]c2ccc(OCCOc3cccc(OC)n3)cc12 [Example 53] ; wanted: its pEC50
Ans: 8.32

Q: # input molecule: COc1ncc(OCCOc2ccc3[nH]cc(CCNC(C)=O)c3c2)cc1F [Example 32] ; wanted: its pEC50
Ans: 7.30

Q: # input molecule: COc1ncc(OCCOc2cc3c(CCNC(C)=O)c[nH]c3cc2F)cc1F [Example 33] ; wanted: its pEC50
Ans: 7.22

Q: # input molecule: CC(=O)NCCc1c(C)[nH]c2ccc(OCCOc3ccnc(C)c3)cc12 [Example 18] ; wanted: its pEC50
Ans: 7.68

Q: # input molecule: CC(=O)NCCc1c(C)[nH]c2ccc(OCCOc3ccn(C)n3)cc12 [Example 7] ; wanted: its pEC50
Ans: 7.66

Q: # input molecule: CC(=O)NCCc1c[nH]c2cc(F)c(OCCc3csc(C)n3)cc12 [Example 25] ; wanted: its pEC50
Ans: 8.54

Q: # input molecule: CNC(=O)NCCc1c(C)[nH]c2cc(F)c(OCCOc3ccn(C)n3)cc12 [Example 47] ; wanted: its pEC50
Ans: 7.39

Q: # input molecule: CC(=O)NCCc1c[nH]c2ccc(OCCc3csc(C)n3)cc12 [Example 20] ; wanted: its pEC50
Ans: 8.11

###

Molecular target: UniProt P48039
Assay: Activation of human MT1 receptor in receptor-expressing cells, intracellular Ca2+ by FLIPR
Conditions: HEK293EBNA1 cells stably expressing human MT1 and Gq/i chimeric G protein; Ca2+ FLIPR
I'd appreciate it if you could supply pEC50 values for the items below.
pEC50 here: minus log base 10 of the concentration, concentration in moles per litre.

Q: Value wanted: pEC50 (UniProt P48039) of entry CNC(=O)NCCc1c(C)[nH]c2ccc(OCCOc3ccn(C)n3)cc12
Ans: 8.08

Q: Value wanted: pEC50 (UniProt P48039) of entry CCC(=O)NCCc1c[nH]c2cc(F)c(OCCOc3ccn(C)n3)cc12
Ans: 8.28

Q: Value wanted: pEC50 (UniProt P48039) of entry CC(=O)NCC(C)(C)c1c[nH]c2cc(F)c(OCCOc3ccn(C)n3)cc12
Ans: 8.43

Q: Value wanted: pEC50 (UniProt P48039) of entry CC(=O)NCCc1c[nH]c2ccc(OCCOc3ccon3)cc12
Ans: 8.01

Q: Value wanted: pEC50 (UniProt P48039) of entry CC(=O)NCCc1c[nH]c2ccc(OCCOc3cncc(F)c3)cc12
Ans: 7.92

Q: Value wanted: pEC50 (UniProt P48039) of entry COC(=O)NCCOc1cc2c(CCNC(C)=O)c(C)[nH]c2cc1F
Ans: 8.24

Q: Value wanted: pEC50 (UniProt P48039) of entry CC(=O)NCCc1c[nH]c2ccc(OCCOc3cccc(C4CC4)n3)cc12
Ans: 8.14

Q: Value wanted: pEC50 (UniProt P48039) of entry CNC(=O)NCCc1c[nH]c2ccc(OCCOc3cncc(Br)c3)cc12
Ans: 8.07

Q: Value wanted: pEC50 (UniProt P48039) of entry CC(=O)NCCc1c[nH]c2ccc(OCCOc3ccnc(Cl)c3)cc12
Ans: 8.28

Q: Value wanted: pEC50 (UniProt P48039) of entry CNC(=O)NCCc1c[nH]c2ccc(OCCOc3cccc(OC)n3)cc12
Ans: 9.00

Q: Value wanted: pEC50 (UniProt P48039) of entry CC(=O)NCCc1c[nH]c2ccc(OCCOc3cncc(Cl)c3)cc12
Ans: 8.10

Q: Value wanted: pEC50 (UniProt P48039) of entry Cn1ccc(OCCOc2ccc3[nH]cc(CCNC(=O)C(F)F)c3c2)n1
Ans: 8.10

Q: Value wanted: pEC50 (UniProt P48039) of entry CC(=O)NCCc1c[nH]c2cc(F)c(OCCOc3ccn(C)n3)cc12
Ans: 8.12

Q: Value wanted: pEC50 (UniProt P48039) of entry COc1ccc(OCCOc2cc3c([C@@H](C)CNC(C)=O)c[nH]c3cc2F)cn1
Ans: 8.20

Q: Value wanted: pEC50 (UniProt P48039) of entry CCCC(=O)NCCc1c[nH]c2ccc(OCCOc3ccn(C)n3)cc12
Ans: 7.96

Q: Value wanted: pEC50 (UniProt P48039) of entry CNC(=O)NCCc1c[nH]c2ccc(OCCOc3ccc(OC)nc3)cc12
Ans: 7.68

###

I'd appreciate it if you could supply Emax values for the items below.
Biological target: human MT1 receptor (Homo sapiens)
Construct: expressed in transfected cells
Sequence (P48039 whole entry): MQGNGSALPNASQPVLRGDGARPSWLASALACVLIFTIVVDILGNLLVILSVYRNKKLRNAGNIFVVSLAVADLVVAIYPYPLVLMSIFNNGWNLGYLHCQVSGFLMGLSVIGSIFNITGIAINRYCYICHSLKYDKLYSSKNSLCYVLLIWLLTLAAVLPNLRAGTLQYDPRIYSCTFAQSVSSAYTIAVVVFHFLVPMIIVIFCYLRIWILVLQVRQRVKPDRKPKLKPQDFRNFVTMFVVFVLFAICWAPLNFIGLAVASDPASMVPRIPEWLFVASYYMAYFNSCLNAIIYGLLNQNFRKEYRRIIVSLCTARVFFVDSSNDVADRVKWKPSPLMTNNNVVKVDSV
Experiment: Activation of human MT1 receptor in receptor-expressing cells, intracellular Ca2+ by FLIPR
Type: cell-based
Conditions: maximum reaction by ramelteon taken as 100%
Number only, in %; omit the unit.

Q: # input compound: CC(=O)NCCc1c[nH]c2ccc(OCCOc3cncc(Cl)c3)cc12 ; wanted: its Emax
Ans: 109

Q: # input compound: CC(=O)NCCc1c[nH]c2ccc(OCCn3ccc(C(F)(F)F)n3)cc12 ; wanted: its Emax
Ans: 102

Q: # input compound: Cn1ccc(OCCOc2cc3c(CCNC(=O)C(F)F)c[nH]c3cc2F)n1 ; wanted: its Emax
Ans: 103

Q: # input compound: CCCc1cccc(OCCOc2ccc3[nH]cc(CCNC(C)=O)c3c2)n1 ; wanted: its Emax
Ans: 84

Q: # input compound: CC(=O)NC[C@H](C)c1c[nH]c2cc(Cl)c(OCCOc3ccn(C)n3)cc12 ; wanted: its Emax
Ans: 97

Q: # input compound: CC(=O)NCC(C)(C)c1c[nH]c2cc(F)c(OCCOc3ccn(C)n3)cc12 ; wanted: its Emax
Ans: 94

Q: # input compound: CCCC(=O)NCCc1c[nH]c2ccc(OCCOc3ccn(C)n3)cc12 ; wanted: its Emax
Ans: 75

Q: # input compound: CNC(=O)NCCc1c(C)[nH]c2ccc(OCCOc3ccn(C)n3)cc12 ; wanted: its Emax
Ans: 95

Q: # input compound: CC(=O)NCCc1c[nH]c2cc(F)c(OCCOc3ccn(C)n3)cc12 ; wanted: its Emax
Ans: 103
